Cited source: paper PMC4715436

molecular target: PqsR (Pseudomonas aeruginosa); test: EMSA with lysate of E. coli Rosetta expressing His-SUMO-PqsR and biotinylated pqsA promoter DNA, semi-quantitative apparent Kd; type: biochemical; design: gene mvfR; recombinant PqsR, N-terminal His-tagged SUMO fusion
Sequence (Q9I4X0 whole entry, the tested form may be a part): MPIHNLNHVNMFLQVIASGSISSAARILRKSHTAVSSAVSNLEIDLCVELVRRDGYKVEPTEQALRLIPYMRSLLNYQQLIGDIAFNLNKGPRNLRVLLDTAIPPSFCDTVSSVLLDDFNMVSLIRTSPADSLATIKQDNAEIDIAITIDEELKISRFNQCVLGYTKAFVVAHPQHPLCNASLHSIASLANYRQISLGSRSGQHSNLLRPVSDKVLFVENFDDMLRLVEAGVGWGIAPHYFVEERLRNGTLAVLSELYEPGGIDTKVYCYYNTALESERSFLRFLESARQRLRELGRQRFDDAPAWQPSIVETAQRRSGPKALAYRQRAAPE
measure: Kd (nM)
Respond with the bare value in nM.

# Kd of CCCCCCCc1[nH]c2ccccc2c(=O)c1O [PQS, 2-heptyl-3-hydroxy-4-quinolone] = 33

----------
target: PqsR (Pseudomonas aeruginosa); assay: STD-NMR titration ([…] to […] DHQ, […] SUMO-PqsR-C87); EMSA also gave an apparent Kd of […]; format: binding; design: gene mvfR
Sequence (Q9I4X0 87-332): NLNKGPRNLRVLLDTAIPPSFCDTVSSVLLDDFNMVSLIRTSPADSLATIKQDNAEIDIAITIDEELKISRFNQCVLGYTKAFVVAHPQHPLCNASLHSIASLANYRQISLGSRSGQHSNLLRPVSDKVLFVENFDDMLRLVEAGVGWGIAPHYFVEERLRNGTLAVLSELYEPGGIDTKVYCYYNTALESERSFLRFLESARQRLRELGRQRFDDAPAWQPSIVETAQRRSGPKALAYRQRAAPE
measure: Kd

For this compound ( Oc1cc(O)c2ccccc2n1 [DHQ, 2,4-dihydroxyquinoline] ), measured Kd is ~450 nM
